system: T1, beta-catenin in DLD1 TCF/LEF luciferase reporter cells (UniProt P35222 1-781)
T1 sequence (looked up): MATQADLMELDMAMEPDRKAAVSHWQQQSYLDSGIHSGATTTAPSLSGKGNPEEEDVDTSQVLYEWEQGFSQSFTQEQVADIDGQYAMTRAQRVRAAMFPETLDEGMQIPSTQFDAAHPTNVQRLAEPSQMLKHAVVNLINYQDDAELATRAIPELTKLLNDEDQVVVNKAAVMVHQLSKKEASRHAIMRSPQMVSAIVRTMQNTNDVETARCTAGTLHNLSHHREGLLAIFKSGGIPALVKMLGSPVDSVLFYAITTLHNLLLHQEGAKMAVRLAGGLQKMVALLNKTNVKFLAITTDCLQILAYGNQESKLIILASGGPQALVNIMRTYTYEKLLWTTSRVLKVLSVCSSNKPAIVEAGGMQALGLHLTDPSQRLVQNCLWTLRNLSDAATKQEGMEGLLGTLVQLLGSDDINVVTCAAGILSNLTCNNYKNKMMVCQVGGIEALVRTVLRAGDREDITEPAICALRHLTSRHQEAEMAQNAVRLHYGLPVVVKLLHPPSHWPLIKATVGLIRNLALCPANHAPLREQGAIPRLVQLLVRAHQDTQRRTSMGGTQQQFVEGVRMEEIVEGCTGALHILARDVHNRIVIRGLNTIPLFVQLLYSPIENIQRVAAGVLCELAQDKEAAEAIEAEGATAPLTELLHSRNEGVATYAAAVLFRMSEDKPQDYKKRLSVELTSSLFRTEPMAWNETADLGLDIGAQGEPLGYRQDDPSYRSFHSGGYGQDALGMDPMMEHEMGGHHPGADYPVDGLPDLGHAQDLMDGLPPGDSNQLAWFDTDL
testMethodNotes: cell-based or functional assay
Starred links: 1 amine or outer side, 2 acyl side, 3 side chain; linkers in the order of their positions; H or OH if unused. Positions of bridges follow the written chain, without caps; N, C: chain ends. Non-standard residues stand in square brackets, D forms with d. Primed or numbered codes have the meaning given here. PyrS2″ = (S)-3-amino-1-((pent-4-en-1-yloxy)carbonyl)pyrrolidine-3-carboxylic acid (stapling residue), C=CCCCOC(=O)N1CC[C@@](N[*:1])(C(=O)[*:2])C1; B5(18) = 2,2-bis(4-pentenyl)glycine (2-amino-2-(pent-4-en-1-yl)hept-6-enoic acid), stitching residue, C=CCCCC(CCCC=C)(N[*:1])C(=O)[*:2]; TfeGA = (S)-2-amino-3-((carboxymethyl)(2,2,2-trifluoroethyl)amino)propanoic acid, O=C([C@H](CN(CC(=O)[*:3])CC(F)(F)F)N[*:1])[*:2]; B5(3) = 2,2-bis(4-pentenyl)glycine (stitching residue), C=CCCCC(CCCC=C)(N[*:1])C(=O)[*:2]; Phe(2-Cl) = N[C@@H](Cc1ccccc1Cl)C(=O)O; Bta = N[C@@H](Cc1csc2ccccc12)C(=O)O; αAllylPro = C=CC[C@@]1(C(=O)O)CCCN1; tBuAla = CC(C)(C)C[C@H](N)C(=O)O; S8 = C=CCCCCCC[C@](C)(N)C(=O)O; hSer = N[C@@H](CCO)C(=O)O
readoutKind: DLD1 reporter assay Abs IC50 (µM)
Number in µM, nothing else.

Task: Quick check: DLD1 reporter assay Abs IC50 of Ac-[αAllylPro]D[tBuAla][B5(18)]DNAAFT[PyrS2″][Phe(2-Cl)][Bta]S-NH2 (staple 1-4, 4-11) [I-1016] ?
Output: 21.4

Task: Look up DLD1 reporter assay Abs IC50: Ac-[αAllylPro]D[tBuAla][B5(18)]DDAAFT[PyrS2″][Phe(2-Cl)][Bta]S-NH2 (staple 1-4, 4-11) [I-1015]
Output: 9

Task: What does the data say about its DLD1 reporter assay Abs IC50? Entry: Ac-[αAllylPro]D[tBuAla][B5(3)]D[TfeGA]AAF[hSer][S8][Phe(2-Cl)][Bta][hSer]-NH2 (staple 1-4, 4-11) [I-1000]
Output: 8
